# target.of.assay: T1, B7-H2mIg (extracellular domain of human B7-H2 linked to mouse IgG2a) (human; mouse, UniProt O75144 19-256)
# T1 construct: extracellular domain; also called B7-H2Ig (mouse Ig); B7-H2Ig; not shown: mouse IgG2a
# T1 sequence (looked up): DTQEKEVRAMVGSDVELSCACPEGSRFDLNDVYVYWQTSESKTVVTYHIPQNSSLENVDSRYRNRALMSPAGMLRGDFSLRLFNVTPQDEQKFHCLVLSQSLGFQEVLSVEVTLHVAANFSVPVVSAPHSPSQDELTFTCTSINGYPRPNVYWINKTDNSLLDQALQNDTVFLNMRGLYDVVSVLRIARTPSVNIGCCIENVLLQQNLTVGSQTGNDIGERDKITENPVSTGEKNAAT
# test: capture ELISA, B7-H2mIg coated, anti-human IgG-HRP detection
The following binders are shown together with reported B7-H2 Binding (specific binding activity as percentage of ICOSIg) values.

QUERY: Output B7-H2 Binding (specific binding activity as percentage of ICOSIg) of ICOSIg mutant Phe114Ser (Fc fusion, Built on ICOSIg cDNA; not shown: CH2-CH3 portion of human IgG1) EINGSANYEMFIFHNGGVQILCKYPDIVQQFKMQLLKGGQILCDLTKTKGSGNTVSIKSLKFCHSQLSNNSVSFFLYNLDHSHANYYFCNLSISDPPPFKVTLTGGYLHIYESQLCCQLK
RESULT: < 0.1 % of wild type ICOSIg

QUERY: Output measured B7-H2 Binding (specific binding activity as percentage of ICOSIg) for this item: ICOSIg mutant Gln49Ser (Fc fusion, Built on ICOSIg cDNA; not shown: CH2-CH3 portion of human IgG1) EINGSANYEMFIFHNGGVQILCKYPDIVSQFKMQLLKGGQILCDLTKTKGSGNTVSIKSLKFCHSQLSNNSVSFFLYNLDHSHANYYFCNLSIFDPPPFKVTLTGGYLHIYESQLCCQLK
RESULT: 33 % of wild type ICOSIg

QUERY: Name the recorded B7-H2 Binding (specific binding activity as percentage of ICOSIg) of the item ICOSIg mutant Gln50Ser (Fc fusion, Built on ICOSIg cDNA; not shown: CH2-CH3 portion of human IgG1) EINGSANYEMFIFHNGGVQILCKYPDIVQSFKMQLLKGGQILCDLTKTKGSGNTVSIKSLKFCHSQLSNNSVSFFLYNLDHSHANYYFCNLSIFDPPPFKVTLTGGYLHIYESQLCCQLK in your answer.
RESULT: 6 % of wild type ICOSIg

QUERY: Identify B7-H2 Binding (specific binding activity as percentage of ICOSIg) associated with the binder ICOSIg mutant Phe51Ser (Fc fusion, Built on ICOSIg cDNA; not shown: CH2-CH3 portion of human IgG1) EINGSANYEMFIFHNGGVQILCKYPDIVQQSKMQLLKGGQILCDLTKTKGSGNTVSIKSLKFCHSQLSNNSVSFFLYNLDHSHANYYFCNLSIFDPPPFKVTLTGGYLHIYESQLCCQLK
RESULT: < 0.1 % of wild type ICOSIg

QUERY: Quick one: give measured B7-H2 Binding (specific binding activity as percentage of ICOSIg) for wild-type ICOSIg (extracellular domain of human ICOS fused to the CH2-CH3 portion of human IgG1) (Fc fusion, Made in COS cells; used as concentrated supernatant or purified; also called human ICOSIg; not shown: CH2-CH3 portion of human IgG1) EINGSANYEMFIFHNGGVQILCKYPDIVQQFKMQLLKGGQILCDLTKTKGSGNTVSIKSLKFCHSQLSNNSVSFFLYNLDHSHANYYFCNLSIFDPPPFKVTLTGGYLHIYESQLCCQLK
RESULT: 100 % of wild type ICOSIg
